# System: Protein translocase subunit SecA (Escherichia coli (strain K12))
# Test Description: Assay to Identify E. coli SecA ATPase Inhibitors
# Format: functional
# Set-up: scale not given: direction of the effect not stated beside the values
# Stated Conditions: 30 µM
Potency and affinity values are given separately.
Recorded Metric: Percent Effect (%)

• Cc1ccc(C(O)CNC(=O)NCc2nc(C)cs2)cc1 (stereo not drawn) = -1.18
• COc1ccc(C(=O)N2C[C@@H](C(=O)O)[C@H](c3ccccc3C)C2)c(O)c1 = -5.13
• Cc1nnc(N2CCC(CS(N)(=O)=O)CC2)c(C#N)c1C = -5.18
• Cc1cccc(-n2cc(C(=O)N3CCCC(n4ccnc4)C3)nn2)c1 (stereo not drawn) = -3.01
• c1cnn(C2CN(Cc3nc(-c4ccsc4)no3)C2)c1 = -3.15
• Cc1ncc(CNC2CCCN(Cc3noc(C4CC4)n3)C2)s1 (stereo not drawn) = -0.948
• O=C(NCCCN1CCCC1)c1n[nH]c(=O)c2ccccc12 = -2.88
• NC(=O)c1cccc(CC2CCN(C(=O)CCCN3CCOCC3)C2)c1 (stereo not drawn) = -2.51
• O=C(c1cccc(Cl)c1)N1CC[C@H]2[C@H]1CCN2CC1CCOCC1 = -2.38
• Cc1nc(CCCNC(=O)C2CC(=O)N(C(C)(C)C)C2)sc1C (stereo not drawn) = -3.07
• CC(Cn1cccn1)NC(=O)Nc1nccs1 (stereo not drawn) = -5.47
• Cc1cccc(N2CCC(NC(=O)CCCc3cccs3)CC2)n1 = -3.35
• CC(=O)N(Cc1ncc(C(C)C)o1)C1CCN(CCn2cccn2)C1 (stereo not drawn) = 0.67
• Cc1ccc(NC(=O)Nc2cnc(N3CCN(C)CC3)nc2)c(Cl)c1 = -1.85
• CN(C)C(=O)N1CCN(C(=O)CCc2ccccc2)[C@H]2CS(=O)(=O)C[C@H]21 = -0.417
• Cc1nc(CN2CCCN(C(=O)C3(C#N)CCCCC3)CC2)cs1 = -5.19
• Cc1cc(C)n(CC2CCCN2C(=O)CCCNc2ncccn2)n1 (stereo not drawn) = -3.06
• O=C(CSC1=NS(=O)(=O)c2cc(F)ccc2N1)c1ccc(Cl)cc1 = -1.43
• CN1[C@H](Cn2cncn2)C[C@@H]2CN(Cc3cccc(C#N)c3)CC[C@@H]21 = -1.53
• O=C(c1cccn1Cc1cccs1)N1CCN(C2CC2)CC1 = -4.51
• COc1ccnc(N2CCN(C(=O)CN3CCCC3=O)CC2)n1 = -4.51
• Cc1ccc(N2CCCC(NCC(=O)Nc3cc(C)no3)C2)nn1 (stereo not drawn) = -1.36
• CC(=O)N1CCCC(c2ccc(Nc3nc(C)cc(C)n3)cn2)C1 (stereo not drawn) = -3.24
• Cc1nccn1C1CCCN(C(=O)c2cc3ccccc3[nH]2)C1 (stereo not drawn) = -6.7
• Cn1cc(Br)c(=O)c(NS(=O)(=O)c2ccc(F)cc2)c1 = -0.436
• CCCN(CC1COc2ccccc2O1)C(=O)CCn1cncn1 (stereo not drawn) = -3.98
• COCCNC(=O)C1(c2ccccc2C)CCOCC1 = -6.97
• Cc1cnn(CC2CN(CC(=O)Nc3sccc3C#N)CCO2)c1 (stereo not drawn) = -4.12
• O=C1CC[C@H]2[C@H](CCN2C(=O)C2CCCO2)N1CCN1CCCC1 (stereo partly drawn) = 1.49
• Cc1cc(C)cc(NS(=O)(=O)c2cc3c(c(C(=O)O)c2)OCCO3)c1 = -4.74
• COc1ccc(-n2ccc(C(=O)NCCN3CCCCC3C)n2)cc1 (stereo not drawn) = -5.51
• Cn1cc(-c2cnc(N3CCOCC3)nc2)cc1C(=O)O = -3.79
• O=C(CCc1cccs1)N1CCC(N2CCNC2=O)CC1 = -2.57
• CCn1cnnc1CNC(=O)NC(C)C(C)C (stereo not drawn) = -4.76
• O=C(Cc1ccc(-n2cccn2)cc1)N1CCCC(n2cccn2)C1 (stereo not drawn) = -9.35
• O=C(NCCCOCC1CC1)Nc1cccnc1N1CCOCC1 = -3.08
• Cc1ccc(C(=O)NCCCN2CCOCC2)c(Cl)c1 = -2.82
• COCC(=O)NCc1cccc(Br)c1 = -0.913
• CCOC[C@@H]1CCC[C@@]12CN(Cc1nccs1)CCO2 = 0.173
• c1cncc(OCC2CN(Cc3ccco3)Cc3nccn3C2)c1 (stereo not drawn) = -1.62
• Cc1cnn(CC(C)NCc2ccc(OCc3ccncc3)cc2)c1 (stereo not drawn) = -5.11
• Cc1ccc(C(=O)N2CCn3cc(CN(C)Cc4ccco4)nc3C2)o1 = 2.2
• CCOCCN1CCN(Cc2nc(C3CC3)no2)CC1CC (stereo not drawn) = -6.05
• CC(C)c1nc(CN2CCN(C(C)c3nc(C4CC4)no3)CC2)no1 (stereo not drawn) = -0.845
• CS(=O)(=O)N1CCC(O)(Cn2c(C3CC3)nc3ccccc3c2=O)CC1 = -6.42
• Cc1cnn(CCNCc2csc(-c3ccc4c(c3)OCO4)n2)c1 = -4.64
• Cn1cc(CN2CC3(CCN(C(=O)c4cscn4)C3)C2)cn1 = -1.74
• O=c1nc(SCc2ccncc2)c2c(n1CCO)CCCC2 = -0.843

---

# System: Arginase-2, mitochondrial (Homo sapiens) (UniProt P78540)
# Sequence (P78540 whole entry): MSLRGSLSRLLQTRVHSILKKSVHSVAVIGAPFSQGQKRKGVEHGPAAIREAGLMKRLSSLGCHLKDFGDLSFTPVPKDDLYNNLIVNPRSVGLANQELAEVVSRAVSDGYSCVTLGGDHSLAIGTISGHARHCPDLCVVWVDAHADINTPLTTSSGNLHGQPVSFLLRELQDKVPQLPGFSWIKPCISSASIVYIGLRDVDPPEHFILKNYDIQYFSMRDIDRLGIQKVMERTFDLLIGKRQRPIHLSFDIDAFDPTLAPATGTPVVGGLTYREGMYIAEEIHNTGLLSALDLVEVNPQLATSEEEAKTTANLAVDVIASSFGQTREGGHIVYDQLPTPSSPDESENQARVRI
# Test Description: in vitro enzyme assay to detect the production of urea directly proportional to the activity of Arginase II; further: in the data most compounds retested in dose-response had high values
# Type: functional
# Parameters: scale not given: direction of the effect not stated beside the values
# Stated Conditions: 33.3 µM
Percent Effect listing for selected molecules.
Recorded Metric: Percent Effect (%)

* CCCN(CC1COc2ccccc2O1)C(=O)CCn1cncn1 (configuration not stated) | -0.383
* CC(C)c1nc2n(n1)CC(NCc1nc(-c3cccnc3)no1)CC2 (configuration not stated) | -2.74
* COc1ccc(-c2nccnc2C2CCN(C(C)=O)CC2)cc1 | -3.48
* Cc1ccc(C(=O)CCC(=O)N2CCC(c3nncn3C)CC2)cc1 | 1.78
* CCC(=O)N1CCC(c2nnc(Cn3cncn3)n2C2CC2)CC1 | 16.3
* Cc1ccsc1CN(CCN(C)C)Cc1ccccn1 | 18.5
* Cc1ccc(CNCc2nnc3n2CCCC3C(F)(F)F)s1 (configuration not stated) | 4.69
* CCC(CC)c1cc(CNC(=O)N2CCOC(C)C2)on1 (configuration not stated) | 2.23
* CN(Cc1cccc(F)c1)C1CCN(CCc2ccccn2)CC1 | -1.29
* Cc1cnn(CC2CN(CC(=O)Nc3sccc3C#N)CCO2)c1 (configuration not stated) | 5.75
* CC(C)Oc1ccc(CSc2nnc(CN3CCCC3=O)o2)cc1 | 1.04
* Cc1cc(C2CCCN(CCc3ccccn3)C2)n[nH]1 (configuration not stated) | 1.14

---

# System: Protein translocase subunit SecA (Escherichia coli (strain K12)) (UniProt P10408)
# Sequence (P10408 whole entry): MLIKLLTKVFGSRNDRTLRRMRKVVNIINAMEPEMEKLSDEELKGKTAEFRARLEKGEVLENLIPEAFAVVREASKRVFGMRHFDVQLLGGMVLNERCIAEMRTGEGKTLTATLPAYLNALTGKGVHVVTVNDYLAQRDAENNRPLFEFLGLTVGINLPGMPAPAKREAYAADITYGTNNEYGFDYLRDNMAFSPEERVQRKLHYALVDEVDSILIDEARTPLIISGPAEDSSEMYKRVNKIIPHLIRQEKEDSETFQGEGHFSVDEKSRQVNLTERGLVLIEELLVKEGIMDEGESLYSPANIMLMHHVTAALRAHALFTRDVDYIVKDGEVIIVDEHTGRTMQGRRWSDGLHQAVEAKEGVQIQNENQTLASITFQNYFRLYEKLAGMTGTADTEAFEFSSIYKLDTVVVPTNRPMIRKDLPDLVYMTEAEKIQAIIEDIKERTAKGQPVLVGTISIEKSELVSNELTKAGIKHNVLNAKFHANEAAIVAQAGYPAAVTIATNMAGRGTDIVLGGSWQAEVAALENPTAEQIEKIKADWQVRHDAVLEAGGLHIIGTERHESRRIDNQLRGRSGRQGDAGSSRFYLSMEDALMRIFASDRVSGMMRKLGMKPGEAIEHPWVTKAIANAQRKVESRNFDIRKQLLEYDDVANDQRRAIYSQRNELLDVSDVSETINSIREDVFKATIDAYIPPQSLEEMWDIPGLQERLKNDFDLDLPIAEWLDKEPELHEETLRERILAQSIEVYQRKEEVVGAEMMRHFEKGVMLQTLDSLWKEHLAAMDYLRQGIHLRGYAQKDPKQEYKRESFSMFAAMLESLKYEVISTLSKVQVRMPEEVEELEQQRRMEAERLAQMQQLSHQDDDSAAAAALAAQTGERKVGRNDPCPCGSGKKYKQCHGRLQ
# Test Description: Assay to Identify E. coli SecA ATPase Inhibitors
# Type: functional
# Parameters: scale not given: direction of the effect not stated beside the values
# Stated Conditions: 30 µM
Potency and affinity values are given separately.
Recorded Metric: Percent Effect (%)

* CC(=O)Nc1nc(C2CCN(CC(N)=O)CC2)cs1 | -1.36
* COc1c(CNCc2ccc(CN(C)C)cc2)c(C)nn1C | 3.12
* Cc1cn2c(n1)CCC(NC(=O)c1ccc(CS(C)(=O)=O)cc1)C2 (stereo unspecified) | -7.39
* CCn1cnnc1CNC(=O)NCC(c1cccs1)N1CCCC1 (stereo unspecified) | -2.72
* CN(C(=O)NCCCN1CCCC1)C1CCN(c2ccccc2)C1=O (stereo unspecified) | 5.28
* O=C(c1cn(-c2ccccc2Cl)nn1)N1CCCSCC1 | -4.85

---

# System: Trypanosoma cruzi
# Test Description: Trypanosoma cruzi phosphomannomutase and mannose-1-phosphate guanylyltransferase assay
# Assay type: functional
# Set-up: scale not given: direction of the effect not stated beside the values
# Stated Conditions: 10 µM
Recorded Metric: Percent Effect

* OCCN1CCOC2(CCCN(c3cccc(F)c3)C2)C1 (centres undefined) | 0.394%
* CNC(=O)CS(=O)(=O)C1CCN(S(=O)(=O)c2ccccc2Br)CC1 | 4.5%
* CC(C)Oc1cccc(C(O)CNC(=O)CCc2ccncc2)c1 (centres undefined) | -3.97%
* CC(C)Oc1ccc(CSc2nnc(CN3CCCC3=O)o2)cc1 | 8.28%
* CN(Cc1cccc(O)c1)CC1CCCN(CCc2ccc(Cl)cc2)C1 (centres undefined) | 2.64%
* C[C@H]1C[C@@H]2CCN(C(=O)c3cccn3C)C[C@H]2O1 | -8.89%
* N#Cc1ccc(CNCC2CCN(CCO)CC2)cc1 | -7.05%
* CC(C)OCC(=O)N1CCCN(Cc2ccc(C#N)cc2)CC1 | 0.94%
* Cc1nc(C2CCCN(C(=O)c3ccc(N4CCCC4)nc3)C2)no1 (centres undefined) | 3.18%
* O=C(NCCN1CCOCC1)c1ccc(-n2ccc3ccccc32)s1 | 1.08%
* CNS(=O)(=O)c1ccc(C(=O)N2CCCC2c2cnn(C)c2)o1 (centres undefined) | 8.12%
* Cc1oc(-c2nc(C#N)c(N(C)C)o2)cc1S(=O)(=O)N1CCCC1 | 2.75%
* Cc1nc(N2CCCC2)ncc1-c1cc(O)nc(N2CCCC2)n1 | -4.13%
* Cc1nc(C)n(CC2CN(c3ncccn3)Cc3nccn3C2)n1 (centres undefined) | -3.42%
* COCC1CCCN(C(=O)c2cc(Cn3ccc4ccccc43)[nH]n2)C1 (centres undefined) | 8.75%
* Cc1cc(CNC(=O)NC(C)c2ccc(N3CCOCC3)cc2)no1 (centres undefined) | 5.61%
* Cc1ccc(CN(CCCn2ccnc2)Cc2c[nH]cn2)s1 | 0%
* Cc1cc(CN2CCN(C(=O)NCc3nc(C)cs3)CC2)on1 | -4.95%
* Cc1cccc(NS(=O)(=O)c2cc(C(=O)O)oc2C)c1Cl | 6.18%
* Cc1cnn(CC2CCCCN2CC(=O)NCc2ccccn2)c1 (centres undefined) | 7.11%
* CC(C)N(C)Cc1cnc2n1CCN(C(=O)NC1CCCC1)C2 | -7.09%
* CC(O)CN1CCN(C(=O)c2ccc(Cn3cccc3)cc2)CC1 (centres undefined) | -3.49%
* O=C(CCNC(=O)C1CCCC1)NCc1cccnc1-n1cncn1 | -1.21%
* Cc1noc(C(C)C)c1C(=O)N1CCOCC1CC(=O)c1ccco1 (centres undefined) | 0.487%

Taken from ChEMBL document CHEMBL3988442.
